Kindly state fold change of affinity for each of the entries shown.
Target: T1, Human CD3eg linker (human)
T1 construct: single-chain construct; also called recombinant human CD3
T1 chain: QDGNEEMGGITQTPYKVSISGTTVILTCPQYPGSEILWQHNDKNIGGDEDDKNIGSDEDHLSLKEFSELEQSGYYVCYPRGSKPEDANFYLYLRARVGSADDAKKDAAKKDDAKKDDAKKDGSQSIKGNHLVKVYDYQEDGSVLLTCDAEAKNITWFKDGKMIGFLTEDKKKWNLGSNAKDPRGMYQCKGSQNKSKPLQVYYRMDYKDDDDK
Test: SPR, vs unmutated H183/L072

Please review the following examples before continuing.
Entry dBBDu183H S100aW/dBBDu072L (antibody, name in Kabat numbering, V domains shown) VH: QVQLVESGGGLVQPGRSLRLSCAASGFTFSNAWMHWVRQAPGKGLEWVAQIKDKGNAYAAYYAPSVKGRFTISRDDSKNSIYLQMNSLKTEDTAVYYCHYVHYASAWTVLPAFGVDAWGQGTTVTVSS VL: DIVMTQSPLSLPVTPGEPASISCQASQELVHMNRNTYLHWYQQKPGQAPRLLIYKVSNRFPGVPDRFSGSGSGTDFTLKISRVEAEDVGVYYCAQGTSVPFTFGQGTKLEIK , fold change of affinity reported as 1.6 fold

// fold change of affinity lookup, binder = dBBDu183H H96S/dBBDu072L (antibody, name in Kabat numbering, V domains shown) VH: QVQLVESGGGLVQPGRSLRLSCAASGFTFSNAWMHWVRQAPGKGLEWVAQIKDKGNAYAAYYAPSVKGRFTISRDDSKNSIYLQMNSLKTEDTAVYYCHYVSYASASTVLPAFGVDAWGQGTTVTVSS VL: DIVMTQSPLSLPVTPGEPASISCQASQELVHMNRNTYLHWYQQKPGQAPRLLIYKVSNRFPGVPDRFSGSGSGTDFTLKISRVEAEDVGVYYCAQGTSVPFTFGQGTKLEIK , result: 0.2 fold

Let us move to another entry and its fold change of affinity.
Reported fold change of affinity ( dBBDu183H G100hE/dBBDu072L (antibody, name in Kabat numbering, V domains shown) VH: QVQLVESGGGLVQPGRSLRLSCAASGFTFSNAWMHWVRQAPGKGLEWVAQIKDKGNAYAAYYAPSVKGRFTISRDDSKNSIYLQMNSLKTEDTAVYYCHYVHYASASTVLPAFEVDAWGQGTTVTVSS VL: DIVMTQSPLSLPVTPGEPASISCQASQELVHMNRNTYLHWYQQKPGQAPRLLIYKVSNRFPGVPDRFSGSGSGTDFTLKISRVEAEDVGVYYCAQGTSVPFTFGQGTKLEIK ) = 0.5 fold
